- tgt: Cytochrome P450 1A2 (Homo sapiens)
- procedureText: Cytochrome P450 Family 1 Subfamily A Member 2 (CYP1A2) small molecule antagonists: luciferase reporter qHTS assay (AID 1671199); also: nearly all actives have a fitted effect of over 50% in size
- experimentalContext: P450-Glo CYP1A2 enzyme, luciferin luminescence, 1 h; series mostly up to 115 µM
- Text: National Center for Advancing Translational Sciences [NCATS] U.S. Environmental Protection Agency [EPA] National Institutes of Environmental Health Sciences [NIEHS] National Toxicology Program [NTP] U.S. Food and Drug Administration [FDA] Cytochrome P450 (CYP) enzymes are membrane-bound hemeproteins that play a key role in metabolism of drugs and xenobiotics. […] The luciferin products formed are detected with a luciferin detection reagent, and the amount of light produced is proportional to CYP activity. […]
Results filed as inconclusive are left out. Calls of active or inactive are those of the source. Calls follow the shape of the dose curve; as a rule, active = well fitted inhibition curve with a large enough effect in the repeat runs; inconclusive = weak or mixed curves; inactive = no such curve, though single readings can be large or run the other way.
Classes used: active, inactive

>  <molecule>
CCNC(=O)NCCCOc1cccc(CN2CCCCC2)c1

>  <assignedClass>
inactive

$$$$
>  <molecule>
COc1cc([N+](=O)[O-])ccc1N

>  <assignedClass>
active

$$$$
>  <molecule>
CC(C)CCCC(C)CC=O (stereo not drawn)

>  <assignedClass>
inactive

$$$$
>  <molecule>
Nc1cc(Cl)cc(S(=O)(=O)O)c1O

>  <assignedClass>
inactive

$$$$
>  <molecule>
CCCCCCCCCCCCC

>  <assignedClass>
inactive

$$$$
>  <molecule>
CC1(N)CCC(C(C)(C)N)CC1 (stereo not drawn)

>  <assignedClass>
inactive

$$$$
>  <molecule>
CC(=O)N1CCN(c2ccc(O)cc2)CC1

>  <assignedClass>
active

$$$$
>  <molecule>
Cc1ccccc1C(=O)N1CC/C(=N\OS(=O)(=O)O)c2ccc(Cl)cc21

>  <assignedClass>
inactive

$$$$
>  <molecule>
OC(CCN1CCCCC1)(c1ccccc1)c1ccccc1

>  <assignedClass>
inactive

$$$$
>  <molecule>
CC1CCC(C(C)(C)S)C(=O)C1 (stereo not drawn)

>  <assignedClass>
inactive

$$$$
>  <molecule>
CC(C)COC(=O)CCCCC(=O)OCC(C)C

>  <assignedClass>
active

$$$$
>  <molecule>
O=C(O)CCNC(=O)c1ccccc1

>  <assignedClass>
inactive

$$$$
>  <molecule>
CC(=O)OC(C(=O)c1ccccc1)c1ccccc1 (stereo not drawn)

>  <assignedClass>
active

$$$$
>  <molecule>
CCN(CCC#N)c1ccccc1

>  <assignedClass>
active

$$$$
>  <molecule>
CC(=O)OCC(=O)[C@@]1(O)[C@H](OC(C)=O)C[C@H]2[C@@H]3CCC4=CC(=O)C=C[C@]4(C)[C@@]3(F)[C@@H](O)C[C@@]21C

>  <assignedClass>
inactive

$$$$
>  <molecule>
COCC(=O)Nc1c(I)c(C(=O)NCC(O)CO)c(I)c(C(=O)N(C)CC(O)CO)c1I (stereo not drawn)

>  <assignedClass>
inactive

$$$$
>  <molecule>
O=[Si]=O

>  <assignedClass>
inactive

$$$$
>  <molecule>
Nc1ccc(C(=O)OCC(O)CO)cc1 (stereo not drawn)

>  <assignedClass>
active

$$$$
>  <molecule>
N#CCCOCCOCCC#N

>  <assignedClass>
active

$$$$
>  <molecule>
O=C1c2ccccc2-c2ccccc21

>  <assignedClass>
active

$$$$
>  <molecule>
Nc1ccc(S(=O)(=O)Nc2ccccn2)cc1

>  <assignedClass>
inactive

$$$$
>  <molecule>
CCCCCC1Nc2cc(C(F)(F)F)c(S(N)(=O)=O)cc2S(=O)(=O)N1 (stereo not drawn)

>  <assignedClass>
inactive

$$$$
>  <molecule>
FC(F)(F)c1ccc(Cl)cc1Cl

>  <assignedClass>
inactive

$$$$
>  <molecule>
CCCCC(CC)CNC(=O)CC(C)OC(=O)CCC(=O)O (stereo not drawn)

>  <assignedClass>
inactive

$$$$
>  <molecule>
O=C(O)c1c(Cl)ccc(Cl)c1Cl

>  <assignedClass>
inactive

$$$$
>  <molecule>
CCCCC(C)C(=O)O (stereo not drawn)

>  <assignedClass>
active

$$$$
>  <molecule>
O=C1OC(=O)c2ccccc21

>  <assignedClass>
inactive

$$$$
>  <molecule>
CCC1Nc2cc(Cl)c(S(N)(=O)=O)cc2S(=O)(=O)N1 (stereo not drawn)

>  <assignedClass>
inactive

$$$$

Source listed as PubChem BioAssay (Tox21).
